# TGT: UniProt:P21453
# Sequence (P21453 whole entry): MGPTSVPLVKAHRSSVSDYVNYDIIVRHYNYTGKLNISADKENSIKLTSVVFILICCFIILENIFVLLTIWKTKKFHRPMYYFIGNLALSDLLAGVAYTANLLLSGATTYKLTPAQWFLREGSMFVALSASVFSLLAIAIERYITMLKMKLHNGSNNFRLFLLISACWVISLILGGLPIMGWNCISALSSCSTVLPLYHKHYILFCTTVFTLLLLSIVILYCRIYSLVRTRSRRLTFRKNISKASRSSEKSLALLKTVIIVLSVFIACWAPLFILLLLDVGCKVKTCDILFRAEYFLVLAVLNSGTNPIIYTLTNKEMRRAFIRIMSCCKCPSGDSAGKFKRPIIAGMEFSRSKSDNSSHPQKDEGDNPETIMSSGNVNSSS
# PROTOCOL NOTES: Agonist activity at recombinant human S1PR1 expressed in CHO cell membranes assessed as [35S]GTP-gammaS binding measured after 1.5 hrs by TopCount scintillation counting method
pEC50: −log10 of the molar value.
Consider the following compounds; for each one, report its pEC50.

Sample answers from the record:
chemical_smiles=O=C(O)CCCNCc1cc2cccc(-c3ccc4ccccc4c3)c2s1 quantity_name=pEC50 measured="< 4.00"
chemical_smiles=O=C(O)C1CN(Cc2cc3cc(-c4ccc5ccccc5c4)ccc3s2)C1 quantity_name=pEC50 measured="< 4.00"

Answer for every listed entry: what is its pEC50? The entries follow.
1. O=C(O)CNCc1cc2c(-c3ccc4ccccc4c3)cccc2s1
2. O=C(O)CCCCNCc1cc2c(-c3ccc4ccccc4c3)cccc2s1

Result:
1: < 4.00; 2: < 4.00

Taken from ChEMBL document CHEMBL3875189.
